Measured lowest phenotypically active concentration, listed per entry for reference.
test system: HepG2-ACTB-RAB5A; assay: lowest phenotypically active concentration; higher = less potent; details: treatment time: 24 h
# unit: µM | format: bare number

Worked examples follow.
>  <input-smiles>
CC(C)n1c(/C=C/[C@@H](O)C[C@@H](O)CC(=O)O)c(-c2ccc(F)cc2)c2ccccc21

>  <quantity-unit>
µM

>  <result-number>
1

$$$$
>  <input-smiles>
CCCOc1ccc(CCc2nc3cc(-c4c(C)noc4C)ccc3n2CCN2CCOCC2)cc1

>  <quantity-unit>
µM

>  <result-number>
9

$$$$

We now examine a further compound.
Entry CCSc1ccc2c(c1)N(CCCN1CCN(C)CC1)c1ccccc1S2 needs its lowest phenotypically active concentration filled in; supply it.
9
